Target sequence: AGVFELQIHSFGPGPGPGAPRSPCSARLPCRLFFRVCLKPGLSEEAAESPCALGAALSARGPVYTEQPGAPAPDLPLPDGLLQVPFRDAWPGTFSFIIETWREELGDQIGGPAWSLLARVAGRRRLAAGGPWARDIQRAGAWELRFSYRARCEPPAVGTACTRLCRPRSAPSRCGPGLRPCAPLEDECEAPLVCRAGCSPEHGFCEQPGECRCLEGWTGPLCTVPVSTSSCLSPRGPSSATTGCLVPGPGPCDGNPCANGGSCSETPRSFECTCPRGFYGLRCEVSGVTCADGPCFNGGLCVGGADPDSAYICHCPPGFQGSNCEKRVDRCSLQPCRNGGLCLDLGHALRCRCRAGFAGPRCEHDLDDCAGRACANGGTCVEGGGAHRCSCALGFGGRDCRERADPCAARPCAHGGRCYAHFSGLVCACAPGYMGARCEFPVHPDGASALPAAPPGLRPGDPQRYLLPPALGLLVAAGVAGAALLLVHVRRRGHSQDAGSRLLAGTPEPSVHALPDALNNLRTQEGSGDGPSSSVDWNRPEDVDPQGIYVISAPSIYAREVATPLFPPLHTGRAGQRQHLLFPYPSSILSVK
pKd: −log10 of the molar value. Bridge positions count the residues as written; N and C are the ends. Square brackets hold non-standard residues; d marks the D form. Peptide text beside a SMILES is read from it. * marks the point of attachment. DOTA = O=C(O)CN1CCN(CC(=O)O)CCN(CC(=O)*)CCN(CC(=O)O)CC1; 1Nal = N[C@@H](Cc1cccc2ccccc12)C(=O)O; Chg = N[C@H](C(=O)O)C1CCCCC1; αMeP = C[C@@]1(C(=O)O)CCCN1

{"columns": ["compound", "pKd"],
 "data": [
  ["CC(=O)N[C@H](C(=O)N[C@@H](CO)C(=O)N[C@@H](CC(=O)O)C(=O)N[C@H]1CSSC[C@@H](C(=O)N2CCC[C@H]2C(=O)N[C@@H](Cc2ccccc2)C(=O)N[C@@H](CC(=O)O)C(N)=O)NC(=O)[C@H](CC(N)=O)NC(=O)[C@H](Cc2c[nH]c3ccccc23)NC(=O)[C@H](CCC(N)=O)NC(=O)[C@H](CC(C)C)NC(=O)[C@H](CCCCNC(=O)CN2CCN(CC(=O)O)CCN(CC(=O)O)CCN(CC(=O)O)CC2)NC1=O)C1CCCCC1 [compound 97] (Ac-[Chg]SDCK(DOTA)LQWNCPFD-NH2; disulfide 4-10)", "< 7.00"],
  ["CC(=O)N[C@H](CO)C(=O)N[C@@H](CC(=O)O)C(=O)N[C@H]1CSSC[C@@H](C(=O)N2CCC[C@@]2(C)C(=O)N[C@@H](Cc2ccccc2)C(=O)N[C@@H](CC(=O)O)C(=O)N[C@H](CCCCNC(=O)CN2CCN(CC(=O)O)CCN(CC(=O)O)CCN(CC(=O)O)CC2)C(N)=O)NC(=O)[C@H](CC(N)=O)NC(=O)[C@H](Cc2c[nH]c3ccccc23)NC(=O)[C@H](CCC(N)=O)NC(=O)[C@@H](CC(C)C)NC(=O)[C@H](Cc2cccc3ccccc23)NC1=O [compound 139] (Ac-[dS]DC[1Nal][dL]QWNC[αMeP]FD[dK](DOTA)-NH2; disulfide 3-9)", "< 7.52"]
]}

---

Kd, human DLL3 (Homo sapiens), per-entry values.
Numbered stars: 1 amine (or outer) side, 2 acyl side, 3 side chain; on linkers, the order of the positions; unused ones are H or OH. Bridge positions count the residues as written; N and C are the ends. Square brackets hold non-standard residues; d marks the D form. Peptide text beside a SMILES is read from it. * marks the point of attachment. DOTA = O=C(O)CN1CCN(CC(=O)O)CCN(CC(=O)*)CCN(CC(=O)O)CC1; Phe(4-F) = N[C@@H](Cc1ccc(F)cc1)C(=O)O; 2Nal = N[C@@H](Cc1ccc2ccccc2c1)C(=O)O; CH2 = C([*:1])[*:2]; Ahx = NCCCCCC(=O)O

{"columns": ["compound", "Kd"],
 "data": [
  ["CC(C)C[C@@H]1NC(=O)[C@H](Cc2c[nH]c3ccccc23)NC(=O)[C@@H](NC(=O)[C@H](CC(=O)O)NC(=O)[C@H](CO)NC(=O)CCCCCNC(=O)CN2CCN(CC(=O)O)CCN(CC(=O)O)CCN(CC(=O)O)CC2)CSSC[C@@H](C(=O)N2CCC[C@H]2C(=O)N[C@@H](Cc2ccc(F)cc2)C(=O)N[C@@H](CC(=O)O)C(N)=O)NC(=O)[C@H](CC(N)=O)NC(=O)[C@H](Cc2c[nH]c3ccccc23)NC(=O)[C@H](CCC(N)=O)NC1=O [compound 33] ({DOTA-Ahx}-SDCWLQWNCP[Phe(4-F)]D-NH2; disulfide 3-9)", "> 300 nM"],
  ["CSCC[C@H](NC(C)=O)C(=O)N[C@@H](CO)C(=O)N[C@@H](CC(=O)O)C(=O)N[C@H]1CSSC[C@@H](C(=O)N2CCC[C@H]2C(=O)N[C@@H](Cc2ccccc2)C(=O)N[C@@H](CC(=O)O)C(N)=O)NC(=O)[C@H](CC(N)=O)NC(=O)[C@H](Cc2c[nH]c3ccccc23)NC(=O)[C@H](CCC(N)=O)NC(=O)[C@H](C)NC(=O)[C@H](Cc2c[nH]c3ccccc23)NC1=O [compound 23] (Ac-MSDCWAQWNCPFD-NH2; disulfide 4-10)", "> 100 nM"],
  ["CSCC[C@H](NC(C)=O)C(=O)N[C@@H](CO)C(=O)N[C@@H](CC(=O)O)C(=O)N[C@H]1CSSC[C@@H](C(=O)N2CCC[C@H]2C(=O)N[C@@H](Cc2ccccc2)C(=O)N[C@H](C)C(N)=O)NC(=O)[C@H](CC(N)=O)NC(=O)[C@H](Cc2c[nH]c3ccccc23)NC(=O)[C@H](CCC(N)=O)NC(=O)[C@H](CC(C)C)NC(=O)[C@H](Cc2c[nH]c3ccccc23)NC1=O [compound 18] (Ac-MSDCWLQWNCPF[dA]-NH2; disulfide 4-10)", "> 100 nM"],
  ["CC(C)C[C@@H]1NC(=O)[C@H](Cc2c[nH]c3ccccc23)NC(=O)[C@@H](NC(=O)[C@H](CC(=O)O)NC(=O)[C@H](CO)NC(=O)CCCCCNC(=O)CN2CCN(CC(=O)O)CCN(CC(=O)O)CCN(CC(=O)O)CC2)CSSC[C@@H](C(=O)N2CCC[C@H]2C(=O)N[C@@H](Cc2ccc3ccccc3c2)C(=O)N[C@@H](CC(=O)O)C(N)=O)NC(=O)[C@H](CC(N)=O)NC(=O)[C@H](Cc2c[nH]c3ccccc23)NC(=O)[C@H](CCC(N)=O)NC1=O [compound 40] ({DOTA-Ahx}-SDCWLQWNCP[2Nal]D-NH2; disulfide 3-9)", "> 300 nM"],
  ["CC(=O)N[C@@H](CO)C(=O)N[C@@H](CC(=O)O)C(=O)N[C@H]1CSCSC[C@@H](C(=O)N2CCC[C@H]2C(=O)N[C@@H](Cc2ccccc2)C(=O)N[C@@H](CC(=O)O)C(=O)N[C@H](CCCCNC(=O)CN2CCN(CC(=O)O)CCN(CC(=O)O)CCN(CC(=O)O)CC2)C(N)=O)NC(=O)[C@H](CC(N)=O)NC(=O)[C@H](Cc2c[nH]c3ccccc23)NC(=O)[C@H](CCC(N)=O)NC(=O)[C@H](CC(C)C)NC(=O)[C@H](Cc2c[nH]c3ccccc23)NC1=O [Cpd #66] (Ac-SDCWLQWNCPFD[dK](DOTA)-NH2; linker 3-9 via CH2)", "> 300 nM"],
  ["CSCC[C@H](NC(=O)CCCCCNC(=O)CN1CCN(CC(=O)O)CCN(CC(=O)O)CCN(CC(=O)O)CC1)C(=O)N[C@@H](CO)C(=O)N[C@@H](CC(=O)O)C(=O)N[C@H]1CSSC[C@@H](C(=O)N2CCC[C@H]2C(=O)N[C@@H](Cc2ccccc2)C(=O)N[C@@H](CC(=O)O)C(N)=O)NC(=O)[C@H](CC(N)=O)NC(=O)[C@H](Cc2c[nH]c3ccccc23)NC(=O)[C@H](CCC(N)=O)NC(=O)[C@H](CC(C)C)NC(=O)[C@H](Cc2c[nH]c3ccccc23)NC1=O [Cpd #7] ({DOTA-Ahx}-MSDCWLQWNCPFD-NH2; disulfide 4-10)", "14 nM"],
  ["CC(=O)N[C@H](C)C(=O)N[C@@H](CO)C(=O)N[C@@H](CC(=O)O)C(=O)N[C@H]1Cc2cnnn2CC[C@@H](C(=O)N2CCC[C@@]2(C)C(=O)N[C@@H](Cc2ccccc2)C(=O)N[C@@H](CC(=O)O)C(=O)N[C@H](CCCCNC(=O)CN2CCN(CC(=O)O)CCN(CC(=O)O)CCN(CC(=O)O)CC2)C(N)=O)NC(=O)[C@H](CC(N)=O)NC(=O)[C@H](Cc2ccc3ccccc3c2)NC(=O)[C@H](CCC(N)=O)NC(=O)[C@H](CC(C)(C)C)NC(=O)[C@H](Cc2cccc3ccccc23)NC1=O", "> 30 nM"],
  ["CSCC[C@H](NC(C)=O)C(=O)N[C@@H](C)C(=O)N[C@@H](CC(=O)O)C(=O)N[C@H]1CSSC[C@@H](C(=O)N2CCC[C@H]2C(=O)N[C@@H](Cc2ccccc2)C(=O)N[C@@H](CC(=O)O)C(N)=O)NC(=O)[C@H](CC(N)=O)NC(=O)[C@H](Cc2c[nH]c3ccccc23)NC(=O)[C@H](CCC(N)=O)NC(=O)[C@H](CC(C)C)NC(=O)[C@H](Cc2c[nH]c3ccccc23)NC1=O [compound 20] (Ac-MADCWLQWNCPFD-NH2; disulfide 4-10)", "> 100 nM"]
]}
